# tested.system: Prostaglandin D2 receptor 2 (Homo sapiens, UniProt Q9Y5Y4)
# Sequence (Q9Y5Y4 whole entry): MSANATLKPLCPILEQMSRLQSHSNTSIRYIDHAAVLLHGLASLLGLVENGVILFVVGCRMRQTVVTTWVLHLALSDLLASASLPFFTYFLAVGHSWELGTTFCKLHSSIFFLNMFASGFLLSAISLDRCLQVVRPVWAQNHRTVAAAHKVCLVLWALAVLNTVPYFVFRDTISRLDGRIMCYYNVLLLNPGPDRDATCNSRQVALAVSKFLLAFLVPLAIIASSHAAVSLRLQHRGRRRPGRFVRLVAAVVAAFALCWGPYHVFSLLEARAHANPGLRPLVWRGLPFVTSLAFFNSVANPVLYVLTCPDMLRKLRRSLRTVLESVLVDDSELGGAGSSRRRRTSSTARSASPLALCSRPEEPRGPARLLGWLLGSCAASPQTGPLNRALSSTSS
# method.description: Displacement of [3H]-PGD2 from human CRTh2 receptor expressed in HEK293 cells
# Type: cell-based
pIC50: −log10 of the molar value.
Assign yes whenever pIC50 does not fall below 7; assign no whenever it does.

Here are 6 compounds together with their reported answers.
> print(dat)
                                   compound  class.name
1  O=C(O)Cn1c(SCCOc2ccc3ccccc3c2)nc2ccccc21          no
2  COc1ccc(C(=O)N2CCc3ccccc32)cc1CSc1nc2cc(F)ccc2n1CC(=O)O         yes
3         CCOC(=O)CCCCSc1nc2ccccc2n1CC(=O)O          no
4    O=C(O)Cn1c(SCc2cc(Cl)ccc2Cl)nc2ccccc21          no
5  COc1ccc(C(C)=O)cc1CSc1nc2cc(C=O)ccc2n1CC(=O)O         yes
6  COc1ccc(C(C)O)cc1CSc1nc2ccccc2n1CC(=O)O (racemic)          no

Quick check, pIC50 >= 7? COC(=O)c1cccc(CSc2nc3ccccc3n2CC(=O)O)c1
no

Quick check, pIC50 >= 7? CCCCCSc1nc2ccccc2n1CC(=O)O
no

###

# method.description: Stability of the compound in simulated intestinal fluid assessed as compound remaining after 4 hrs
# Assay type: physicochemical
# applied.conditions: read-out: Stability
measure.name: remaining at 4 h (%)
Write the number in % without appending the unit.

Field: example entries. Status: answers known.
> print(dat)
                              smiles.string  data.value
1  COc1ccc(C(C)=O)cc1CSc1nc2cc(F)ccc2n1CC(=O)O         100
2  COc1ccc(C(=O)N2CCc3ccccc32)cc1CSc1nc2cc(F)ccc2n1CC(=O)O         100
3  COc1ccc(C(C)=O)cc1CSc1nc2ccccc2n1CC(=O)O         100

Consider the additional molecule presented here.
Write down remaining at 4 h measured for item CCCCNC(=O)c1ccc(OC)c(CSc2nc3cc(F)ccc3n2CC(=O)O)c1
78

###

# tested.system: Prostaglandin D2 receptor 2 (Homo sapiens, UniProt Q9Y5Y4)
# method.description: Displacement of [3H]-PGD2 from human CRTh2 receptor expressed in HEK293 cells
# Type: cell-based
measure.name: pIC50
Schema: pIC50 number; meaning minus log10 of the concentration expressed in molar units.

> print(dat)
                              smiles.string  data.value
1         O=C(O)Cn1c(SCCc2ccccc2)nc2ccccc21        6.06
2  CCCOc1ccc(C(C)=O)cc1CSc1nc2cc(F)ccc2n1CC(=O)O        8.30
3       O=C(O)Cn1c(SCCCNc2ccccc2)nc2ccccc21        5.57

Write down pIC50 measured for item O=C(O)Cn1c(SCc2ccc(Br)cc2)nc2ccccc21
6.66

Write down pIC50 measured for item O=C(O)Cn1c(SCc2ccc(Cl)cc2)nc2ccccc21
6.80

Write down pIC50 measured for item COC(=O)c1ccccc1CSc1nc2ccccc2n1CC(=O)O
6.28

Write down pIC50 measured for item Cc1ccccc1CSc1nc2ccccc2n1CC(=O)O
6.09

Write down pIC50 measured for item COC(=O)c1cc(CSc2nc3ccccc3n2CC(=O)O)ccc1Br
6.01

###

# tested.system: UniProtKB P11712
# Sequence (P11712 whole entry): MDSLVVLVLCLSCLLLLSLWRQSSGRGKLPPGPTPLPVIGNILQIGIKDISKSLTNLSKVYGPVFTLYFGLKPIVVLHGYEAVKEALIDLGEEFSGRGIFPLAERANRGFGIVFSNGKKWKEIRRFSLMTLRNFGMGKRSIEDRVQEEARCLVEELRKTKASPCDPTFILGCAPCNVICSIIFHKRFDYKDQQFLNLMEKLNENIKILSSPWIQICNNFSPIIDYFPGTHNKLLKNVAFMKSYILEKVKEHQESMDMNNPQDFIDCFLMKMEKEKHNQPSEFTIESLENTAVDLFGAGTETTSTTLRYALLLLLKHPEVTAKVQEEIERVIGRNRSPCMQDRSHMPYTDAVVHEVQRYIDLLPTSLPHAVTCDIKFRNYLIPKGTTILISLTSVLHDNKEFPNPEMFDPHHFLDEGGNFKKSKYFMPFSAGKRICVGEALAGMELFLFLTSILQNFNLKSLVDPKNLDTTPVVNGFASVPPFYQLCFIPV
measure.name: IC50 (µM)
Write the number in µM without appending the unit.

// fetch IC50; item: COc1ccc(C(C)=O)cc1CSc1nc2ccccc2n1CC(=O)O ; system: UniProtKB P11712
24

###

# method.description: Solubility of the compound in phosphate buffer at pH 7
# Type: physicochemical
measure.name: solubility
The reply should read as a number followed by its unit.

> print(dat)
                              smiles.string   data.value
1  COc1ccc(C(C)=O)cc1CSc1nc2cc(F)ccc2n1CC(=O)O  0.399 mg/mL
2  CCCCNC(=O)c1ccc(OC)c(CSc2nc3cc(F)ccc3n2CC(=O)O)c1  0.719 mg/mL
3  COc1ccc(C(=O)N2CCc3ccccc32)cc1CSc1nc2cc(F)ccc2n1CC(=O)O  0.812 mg/mL

Write down solubility measured for item COc1ccc(C(C)=O)cc1CSc1nc2ccccc2n1CC(=O)O
0.602 mg/mL

###

# tested.system: Cytochrome P450 3A4 (Homo sapiens, UniProt P08684)
# Sequence (P08684 whole entry): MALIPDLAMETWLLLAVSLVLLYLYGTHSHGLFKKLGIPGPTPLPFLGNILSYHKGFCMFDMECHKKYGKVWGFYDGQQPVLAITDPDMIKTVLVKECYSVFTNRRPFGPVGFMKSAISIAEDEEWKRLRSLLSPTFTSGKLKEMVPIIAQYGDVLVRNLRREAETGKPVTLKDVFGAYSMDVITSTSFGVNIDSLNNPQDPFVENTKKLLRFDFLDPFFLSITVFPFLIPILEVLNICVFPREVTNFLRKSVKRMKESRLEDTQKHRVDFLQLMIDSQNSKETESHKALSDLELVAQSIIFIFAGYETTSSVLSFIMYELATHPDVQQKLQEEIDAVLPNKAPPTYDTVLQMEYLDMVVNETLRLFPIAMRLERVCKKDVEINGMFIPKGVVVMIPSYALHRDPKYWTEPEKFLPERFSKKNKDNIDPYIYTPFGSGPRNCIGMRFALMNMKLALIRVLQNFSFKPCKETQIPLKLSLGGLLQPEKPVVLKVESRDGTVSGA
# method.description: Inhibition of CYP3A4 using testosterone as substrate
# Format: ADME
Below, each entry is listed alongside its reported IC50.

Field: example entries. Status: answers known.
> print(dat)
                              smiles.string  measure.name  data.value
1  COc1ccc(C(=O)N2CCc3ccccc32)cc1CSc1nc2cc(F)ccc2n1CC(=O)O          IC50       13 µM
2  COc1ccc(C(C)=O)cc1CSc1nc2ccccc2n1CC(=O)O          IC50     > 50 µM
3  COc1ccc(C(C)=O)cc1CSc1nc2cc(F)ccc2n1CC(=O)O          IC50       15 µM

Consider the additional molecule presented here.
Write down IC50 measured for item CCCCNC(=O)c1ccc(OC)c(CSc2nc3cc(F)ccc3n2CC(=O)O)c1
7 µM

###

Below, each entry is listed alongside its reported Vd.
# method.description: Volume of distribution at steady state in Wistar rat at 1 mg/kg, iv and 10 mg/kg, po
# Assay type: ADME, organism-based
# applied.conditions: in vivo, read-out: Vdss
Write the number in L/kg without appending the unit.

> print(dat)
                                   molecule  data.value
1  COc1ccc(C(C)=O)cc1CSc1nc2ccccc2n1CC(=O)O         1.1
2  CC(=O)CC(c1ccccc1)c1c(O)c2ccccc2oc1=O (centres undefined)           1
3  COc1ccc(C(C)=O)cc1CSc1nc2cc(F)ccc2n1CC(=O)O         1.2

Consider the additional molecule presented here.
Write down Vd measured for item CC(=O)Oc1ccccc1C(=O)O
1

###

# method.description: Intrinsic clearance in rat hepatocytes assessed per 10^6 cells
# Format: ADME, cell-based, Hepatocyte
# applied.conditions: read-out: CLH
measure.name: hepatocyte CLint (µL/min/1e6 cells)
Write the number in µL/min/1e6 cells without appending the unit.

Field: example entries. Status: answers known.
> print(dat)
                              smiles.string  data.value
1  COc1ccc(C(=O)N2CCc3ccccc32)cc1CSc1nc2cc(F)ccc2n1CC(=O)O          12
2  COc1ccc(C(C)=O)cc1CSc1nc2ccccc2n1CC(=O)O          10
3  COc1ccc(C(C)=O)cc1CSc1nc2cc(F)ccc2n1CC(=O)O          20

Consider the additional molecule presented here.
Write down hepatocyte CLint measured for item CCCCNC(=O)c1ccc(OC)c(CSc2nc3cc(F)ccc3n2CC(=O)O)c1
6

###

Below, each entry is listed alongside its reported remaining at 4 h.
# method.description: Metabolic stability of the compound in human plasma assessed as compound remaining after 4 hrs
# Type: ADME, cell-free
# applied.conditions: read-out: Stability
Write the number in % without appending the unit.

Field: example entries. Status: answers known.
> print(dat)
                              smiles.string      measure.name  result.unit  data.value
1  COc1ccc(C(C)=O)cc1CSc1nc2cc(F)ccc2n1CC(=O)O  remaining at 4 h            %         100
2  CCCCNC(=O)c1ccc(OC)c(CSc2nc3cc(F)ccc3n2CC(=O)O)c1  remaining at 4 h            %         100
3  COc1ccc(C(=O)N2CCc3ccccc32)cc1CSc1nc2cc(F)ccc2n1CC(=O)O  remaining at 4 h            %          93

Consider the additional molecule presented here.
Write down remaining at 4 h measured for item COc1ccc(C(C)=O)cc1CSc1nc2ccccc2n1CC(=O)O
100

###

# method.description: Stability of the compound in simulated gastric fluid assessed as compound remaining after 1 hr
# Assay type: physicochemical
# applied.conditions: read-out: Stability
Below, each entry is listed alongside its reported remaining at 1 h.
Write the number in % without appending the unit.

> print(dat)
                              smiles.string  data.value
1  COc1ccc(C(C)=O)cc1CSc1nc2ccccc2n1CC(=O)O          92
2  COc1ccc(C(=O)N2CCc3ccccc32)cc1CSc1nc2cc(F)ccc2n1CC(=O)O         100
3  COc1ccc(C(C)=O)cc1CSc1nc2cc(F)ccc2n1CC(=O)O          95

Consider the additional molecule presented here.
Write down remaining at 1 h measured for item CCCCNC(=O)c1ccc(OC)c(CSc2nc3cc(F)ccc3n2CC(=O)O)c1
94
